- Tested on: HT-29
- test-description: Growth inhibition of human HT-29 cells after 96 hrs by sulforhodamine B assay
- Assay type: functional
- settings: HT-29, 96 h
For each of the molecules below, state its GI50.
One number for each entry, in µM.

get_value(item= CC[C@H](Nc1nc(NCc2ccccc2)c2ncn(C(C)C)c2n1)C(O)C(C)C (mixture of isomers) , readout=GI50) returns 23

// each listed molecule needs a value for GI50
1. CC[C@@H](Nc1nc(NCc2ccccn2)c2ncn(C(C)C)c2n1)C(C)O (mixture of isomers)
2. CC[C@@H](Nc1nc(NCc2ccccn2)c2ncn(C(C)C)c2n1)C(O)C(C)(C)C (mixture of isomers)
3. CC[C@H](Nc1nc(NCc2ccccn2)c2ncn(C(C)C)c2n1)C(C)O (mixture of isomers)

Solution:
42
34
20

# return GI50 for each item in the list
1. CC[C@@H](Nc1nc(NCc2ccccc2)c2ncn(C(C)C)c2n1)C(C)(C)O
2. CC[C@H](Nc1nc(NCc2cccnc2)c2ncn(C(C)C)c2n1)C(O)C(C)C (mixture of isomers)

Solution:
23
26

Recorded values, source ChEMBL document CHEMBL1921760.
